Here the recorded inhibition at 1 µM is given for each entry.
Biological target: 17β-hydroxysteroid dehydrogenase type 2 (17β-HSD type 2) (Homo sapiens)
Construct: expressed in transfected cells; host or cells: MCF-7
Sequence (P37059 whole entry): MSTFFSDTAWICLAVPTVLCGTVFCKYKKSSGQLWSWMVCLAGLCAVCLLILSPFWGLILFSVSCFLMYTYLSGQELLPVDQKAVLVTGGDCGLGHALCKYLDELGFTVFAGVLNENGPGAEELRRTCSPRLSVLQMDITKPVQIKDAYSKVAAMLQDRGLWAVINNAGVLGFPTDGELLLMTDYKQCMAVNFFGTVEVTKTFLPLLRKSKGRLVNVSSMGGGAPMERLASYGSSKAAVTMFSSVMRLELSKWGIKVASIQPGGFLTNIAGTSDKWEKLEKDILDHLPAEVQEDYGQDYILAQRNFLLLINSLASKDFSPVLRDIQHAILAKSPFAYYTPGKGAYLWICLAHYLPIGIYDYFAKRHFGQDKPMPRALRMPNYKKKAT
Assay: Inhibition of 17β-HSD type 2 in MCF-7 cells stably expressing the isoenzyme (tritium labeled estradiol conversion, HPLC)
Format: cell-based
Details: MCF7; 1 μM test compound; MCF-7 cells expressing 17β-HSD type 2; 2 nM tritium labeled estradiol; read-out: % Inhibition HSD2 1 μM
Description: Biological Testing Materials and Methods 1. Inhibition of the 17β-hydroxysteroid dehydrocienase type 1, type 2 and type 3 enzyme The compounds were screened in respect of 17β-HSD enzyme activity in vitro on established MCF-7 cell lines, each stably expressing one of the respective 17β-HSD isoenzymes. The interconversion of substrate by each isoenzyme and the 17β-HSD inhibiting activity of chemical compounds in these cell lines were detected by HPLC system. […]
test.readout: inhibition at 1 µM (%)

[[record]]
molecule = "CCOC1=C(C=O)CCc2c1sc1nc(-c3cc(OC)c(OC)c(OC)c3)n(Cc3ccccc3)c(=O)c21"
tested_system = "17β-hydroxysteroid dehydrogenase type 2 (17β-HSD type 2) (Homo sapiens)"
numeric_result = 8.2

[[record]]
molecule = "COc1cc(-c2nc3sc4c(OC)cccc4c3c(=O)n2Cc2ccccc2)cc(OC)c1OC"
tested_system = "17β-hydroxysteroid dehydrogenase type 2 (17β-HSD type 2) (Homo sapiens)"
numeric_result = 25.7

[[record]]
molecule = "CCC(C)Cn1c(-c2cc(OC)c(OC)c(OC)c2Cl)nc2sc3c(c2c1=O)CCC(Cl)C3=O (centres unmarked)"
tested_system = "17β-hydroxysteroid dehydrogenase type 2 (17β-HSD type 2) (Homo sapiens)"
numeric_result = 3

[[record]]
molecule = "COc1ccc(-c2nc3sc4c(Oc5ccccc5)c(CO)ccc4c3c(=O)n2Cc2ccccc2)cc1"
tested_system = "17β-hydroxysteroid dehydrogenase type 2 (17β-HSD type 2) (Homo sapiens)"
numeric_result = -1.7

[[record]]
molecule = "CCCCn1c(-c2cc(OC)c(OC)c(OC)c2)nc2sc3c(c2c1=O)CCC(Br)C3=O (centres unmarked)"
tested_system = "17β-hydroxysteroid dehydrogenase type 2 (17β-HSD type 2) (Homo sapiens)"
numeric_result = 24.6

[[record]]
molecule = "COc1cc(-c2nc3sc4c(O)cccc4c3c(=O)n2CC(C)C)cc(OC)c1OC"
tested_system = "17β-hydroxysteroid dehydrogenase type 2 (17β-HSD type 2) (Homo sapiens)"
numeric_result = 14.6

[[record]]
molecule = "COc1cc(-c2nc3sc4c(O)cccc4c3c(=O)n2Cc2ccccc2)c(Cl)c(OC)c1OC"
tested_system = "17β-hydroxysteroid dehydrogenase type 2 (17β-HSD type 2) (Homo sapiens)"
numeric_result = 0.2

[[record]]
molecule = "CCCCn1c(-c2cc(OC)c(OC)c(OC)c2Br)nc2sc3c(O)cc(C)cc3c2c1=O"
tested_system = "17β-hydroxysteroid dehydrogenase type 2 (17β-HSD type 2) (Homo sapiens)"
numeric_result = 6.2

[[record]]
molecule = "COc1cc(-c2nc3sc4c(c3c(=O)n2Cc2ccccc2)CCCC4O)cc(OC)c1OC (centres unmarked)"
tested_system = "17β-hydroxysteroid dehydrogenase type 2 (17β-HSD type 2) (Homo sapiens)"
numeric_result = 25.9

[[record]]
molecule = "Cc1nc2sc3c(c2c(=O)n1-c1ccccc1)CCCC3"
tested_system = "17β-hydroxysteroid dehydrogenase type 2 (17β-HSD type 2) (Homo sapiens)"
numeric_result = 4.1

[[record]]
molecule = "O=C(OCCn1c(-c2cccs2)nc2sc3c(c2c1=O)CCC(Br)C3=O)c1cccs1 (centres unmarked)"
tested_system = "17β-hydroxysteroid dehydrogenase type 2 (17β-HSD type 2) (Homo sapiens)"
numeric_result = 28.9

[[record]]
molecule = "COCc1nc2sc3c(c2c(=O)n1-c1ccccc1)CCCC3=O"
tested_system = "17β-hydroxysteroid dehydrogenase type 2 (17β-HSD type 2) (Homo sapiens)"
numeric_result = -0.2

[[record]]
molecule = "Cc1nc2sc3c(c2c(=O)n1-c1ccccc1)CCC(Br)C3=O (centres unmarked)"
tested_system = "17β-hydroxysteroid dehydrogenase type 2 (17β-HSD type 2) (Homo sapiens)"
numeric_result = 2.2

[[record]]
molecule = "CCCc1nc2sc3c(c2c(=O)n1Cc1ccccc1OC)CCCC3"
tested_system = "17β-hydroxysteroid dehydrogenase type 2 (17β-HSD type 2) (Homo sapiens)"
numeric_result = 25.7

[[record]]
molecule = "O=C1c2sc3nc(-c4ccc(Br)s4)n(Cc4ccccc4)c(=O)c3c2CCC1(Br)Br"
tested_system = "17β-hydroxysteroid dehydrogenase type 2 (17β-HSD type 2) (Homo sapiens)"
numeric_result = 27

[[record]]
molecule = "CCCc1nc2sc3c(c2c(=O)n1Cc1ccccc1OC)CCCC3=O"
tested_system = "17β-hydroxysteroid dehydrogenase type 2 (17β-HSD type 2) (Homo sapiens)"
numeric_result = 6.9

[[record]]
molecule = "CCCCn1c(-c2cc(OC)c(OC)c(O)c2Br)nc2sc3c(O)c(Br)c(C)cc3c2c1=O"
tested_system = "17β-hydroxysteroid dehydrogenase type 2 (17β-HSD type 2) (Homo sapiens)"
numeric_result = 16.1

[[record]]
molecule = "COc1cc(-c2nc3sc4c(c3c(=O)n2Cc2ccccc2)CCCC4)cc(OC)c1OC"
tested_system = "17β-hydroxysteroid dehydrogenase type 2 (17β-HSD type 2) (Homo sapiens)"
numeric_result = 7.3

[[record]]
molecule = "O=C1CCCc2c1sc1nc(-c3ccccc3)n(Cc3ccccc3)c(=O)c21"
tested_system = "17β-hydroxysteroid dehydrogenase type 2 (17β-HSD type 2) (Homo sapiens)"
numeric_result = 17.5

[[record]]
molecule = "O=C(OCCn1c(-c2cccs2)nc2sc3c(O)cccc3c2c1=O)c1cccs1"
tested_system = "17β-hydroxysteroid dehydrogenase type 2 (17β-HSD type 2) (Homo sapiens)"
numeric_result = 58.3

[[record]]
molecule = "CCCc1nc2sc3c(O)c(Br)ccc3c2c(=O)n1Cc1ccc(Br)o1"
tested_system = "17β-hydroxysteroid dehydrogenase type 2 (17β-HSD type 2) (Homo sapiens)"
numeric_result = 25.4

[[record]]
molecule = "O=C1c2sc3nc(-c4ccccc4)n(Cc4ccccc4)c(=O)c3c2CCC1(Br)Br"
tested_system = "17β-hydroxysteroid dehydrogenase type 2 (17β-HSD type 2) (Homo sapiens)"
numeric_result = 36.7

[[record]]
molecule = "COc1cc(-c2nc3sc4c(Sc5ccccc5)c(C=O)ccc4c3c(=O)n2Cc2ccccc2)cc(OC)c1OC"
tested_system = "17β-hydroxysteroid dehydrogenase type 2 (17β-HSD type 2) (Homo sapiens)"
numeric_result = -2.6

[[record]]
molecule = "COc1cc(-c2nc3sc4c(O)cc(C)cc4c3c(=O)n2Cc2ccccc2)c(Br)c(OC)c1OC"
tested_system = "17β-hydroxysteroid dehydrogenase type 2 (17β-HSD type 2) (Homo sapiens)"
numeric_result = 14.2

[[record]]
molecule = "CCCCn1c(-c2cc(OC)c(OC)c(OC)c2)nc2sc3c(c2c1=O)CC(C)CC3 (centres unmarked)"
tested_system = "17β-hydroxysteroid dehydrogenase type 2 (17β-HSD type 2) (Homo sapiens)"
numeric_result = 2.1

[[record]]
molecule = "CC(=O)OCc1nc2sc3c(c2c(=O)n1-c1ccccc1)CCCC3"
tested_system = "17β-hydroxysteroid dehydrogenase type 2 (17β-HSD type 2) (Homo sapiens)"
numeric_result = 25

[[record]]
molecule = "O=C1CCCc2c1sc1nc(-c3cccs3)n(Cc3ccccc3)c(=O)c21"
tested_system = "17β-hydroxysteroid dehydrogenase type 2 (17β-HSD type 2) (Homo sapiens)"
numeric_result = 18.9

[[record]]
molecule = "COCc1nc2sc3c(c2c(=O)n1Cc1ccccc1)CCCC3=O"
tested_system = "17β-hydroxysteroid dehydrogenase type 2 (17β-HSD type 2) (Homo sapiens)"
numeric_result = -0.5

[[record]]
molecule = "CC(=O)Oc1c(Br)ccc2c1sc1nc(-c3ccccc3)n(Cc3ccccc3)c(=O)c12"
tested_system = "17β-hydroxysteroid dehydrogenase type 2 (17β-HSD type 2) (Homo sapiens)"
numeric_result = 43.2

[[record]]
molecule = "COc1ccc(-c2nc3sc4c(c3c(=O)n2Cc2ccccc2)CCC(Br)C4=O)cc1 (centres unmarked)"
tested_system = "17β-hydroxysteroid dehydrogenase type 2 (17β-HSD type 2) (Homo sapiens)"
numeric_result = 14.3

[[record]]
molecule = "COc1ccc(-c2nc3sc4c(c3c(=O)n2Cc2ccccc2)CCC(C=O)=C4Cl)cc1"
tested_system = "17β-hydroxysteroid dehydrogenase type 2 (17β-HSD type 2) (Homo sapiens)"
numeric_result = 0.5

[[record]]
molecule = "COc1cc(-c2nc3sc4c(c3c(=O)n2Cc2ccccc2)CCC(C=O)=C4Oc2ccccc2)cc(OC)c1OC"
tested_system = "17β-hydroxysteroid dehydrogenase type 2 (17β-HSD type 2) (Homo sapiens)"
numeric_result = -4.3

[[record]]
molecule = "COc1cc(-c2nc3sc4c(c3c(=O)n2Cc2ccccc2)C(C)CCC4)cc(OC)c1OC (centres unmarked)"
tested_system = "17β-hydroxysteroid dehydrogenase type 2 (17β-HSD type 2) (Homo sapiens)"
numeric_result = 9.2

[[record]]
molecule = "COCCn1c(-c2cccs2)nc2sc3c(c2c1=O)CCCC3=O"
tested_system = "17β-hydroxysteroid dehydrogenase type 2 (17β-HSD type 2) (Homo sapiens)"
numeric_result = 20.2

[[record]]
molecule = "O=Cc1nc2c(c(=O)n1Cc1ccccc1)C1=C(CCCC1)S2(=O)=O"
tested_system = "17β-hydroxysteroid dehydrogenase type 2 (17β-HSD type 2) (Homo sapiens)"
numeric_result = 16.3


Reference source: patent US7524853B2
